- Tested on: MS2 coat protein
- PROTOCOL: apparent Kd, MS2 coat protein; higher = weaker binding; RNA-MaP array
- CONDITIONS: ligand present: tryptophan; designed as: ON switch for tryptophan
OUTCOME MEASURE: apparent Kd (nM)
State just the number; it will be interpreted in nM.

**Q:** // returns reported apparent Kd for input UAGGACAUGAGGAUCACCCAUGUUGUACGGCGAGGACCGGUACGGCCGCCACUCGAGGCGUAAGUAGUAAAGAAUCUGAUUCAAU
**A:** 24.1

**Q:** Fill in: apparent Kd of GGGCACAUGAGGAUCACCCAUGUCCAACGGCGAGGACCGGUACGGCCGCCACUCGGUAUAAGCUUCGAAAAGGAGGAUCCUGCAG is ___
**A:** 30.9

**Q:** Tell me the measured apparent Kd of GCAGACAUGAGGAUCACCCAUGUACUUGGGCGAGGACCGGUACGGCCGCCACUCGUAGACUUGACGAGGAAAUGUUCUCGCAGGG , please.
**A:** 19.1

**Q:** // apparent Kd lookup, key: CAAGACAUGAGGAUCACCCAUGUGGUGUACCGAGGACCGGUACGGCCGCCACUCGUUCAUCGGUCGACAAGCUACCCUUCAAGGU
**A:** 38.7

**Q:** What does the data say about its apparent Kd? Entry: GUUUACAUGAGGAUCACCCAUGUCGCCGGCCGAGGACCGGUACGGCCGCCACUCGUCCUAAUGGCACUUGACUUCCCUAUUAAGU
**A:** 24.3

**Q:** Any idea what its apparent Kd is? The sequence is CAUGACAUGAGGAUCACCCAUGUAUCCAGUCGAGGACCGGUACGGCCGCCACUCGGUGCCUUCAAAUUUACAGACAGGUGACAGG
**A:** 22.8

// data source = the EternaBench riboswitch data
